- assay target: GK (glucokinase, residues 12-465) (Homo sapiens, UniProt P35557)
- Construct: I.D. No. 1 corresponds to residues 12-465 of glucokinase; made in house; host or cells: DH10b-T1r E. coli
- Sequence (P35557 with tags, fused parts or gaps isoform P35557-2): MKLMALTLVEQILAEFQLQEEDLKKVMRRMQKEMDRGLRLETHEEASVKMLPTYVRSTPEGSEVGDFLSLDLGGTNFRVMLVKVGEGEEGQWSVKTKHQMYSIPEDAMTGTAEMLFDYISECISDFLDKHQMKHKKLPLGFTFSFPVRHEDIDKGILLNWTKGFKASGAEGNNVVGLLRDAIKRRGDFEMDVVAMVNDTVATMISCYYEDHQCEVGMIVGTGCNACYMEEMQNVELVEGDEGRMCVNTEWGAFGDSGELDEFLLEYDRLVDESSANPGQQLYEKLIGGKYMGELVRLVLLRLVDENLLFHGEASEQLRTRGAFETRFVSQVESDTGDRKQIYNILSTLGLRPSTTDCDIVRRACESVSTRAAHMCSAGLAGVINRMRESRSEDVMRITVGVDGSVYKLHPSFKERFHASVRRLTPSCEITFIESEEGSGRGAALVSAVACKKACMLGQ
- test details: enzymatic glucokinase activity assay (ATP consumption, KinaseGlo luminescence)
- Assay type: biochemical
- test conditions: calculated maximal gain in GK enzyme activity at a saturating concentration of the compound; 5 μM ATP, 5 mM Glucose; reported as bins; read-out: % ACTmax
Let's look at some compounds and their measured Emax.

Consider the following illustrative entries.
O=C(Nc1cnccn1)C(CC1CCOCC1)n1ncc2c(S(=O)(=O)C3CC3)ccnc21 (stereo not drawn) : 106 to 110%
COc1cc(S(=O)(=O)C2CC2)c2cnn([C@@H](CC3CCOCC3)C(=O)Nc3ncc(F)s3)c2c1 : 90 to 100%
Cn1ccc(NC(=O)[C@@H](CC2CCOCC2)n2ncc3c(S(=O)(=O)C4CC4)cncc32)n1 : 90 to 100%
O=C(Nc1ncc(F)s1)[C@@H](CC1CCCC1)n1cc(S(=O)(=O)C2CC2)cn1 : ≤ 90%

Task: Data request, read-out Emax, for O=C(Nc1cnccn1)C(CC1CCOCC1)n1ncc2c(S(=O)(=O)C3CC3)cc(Cl)cc21 (stereo not drawn)
Result: 90 to 100%

Task: Give the measured Emax of O=C(Nc1cnccn1)C(CC1CCOCC1)n1cc2c(S(=O)(=O)C3CC3)cc(Cl)cc2n1 (stereo not drawn) .
Result: ≤ 90%

Origin of the recorded values: patent US8563730B2
